# systemTested: T1, HuCTLA4-HuIgG1 (fusion protein of the extracellular part of human CD152 and human Fc gamma 1, CTLA4-Ig) (human, UniProt P16410 36-161)
# T1 construct: extracellular domain; also called CTLA4-hFc; CTLA4-Fc; not shown: human Fc gamma 1
# T1 sequence (P16410 36-161 limits assumed): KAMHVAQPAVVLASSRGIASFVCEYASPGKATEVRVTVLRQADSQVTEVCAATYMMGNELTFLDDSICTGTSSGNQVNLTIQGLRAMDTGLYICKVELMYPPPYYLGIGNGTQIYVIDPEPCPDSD
# assayMethodText: SPR, Biacore T100, CTLA4-Ig amine-coupled
measurementType: kon (M⁻¹ s⁻¹)
Give a bare numeral; the unit M⁻¹ s⁻¹ is implied.

Below are worked cases with known answers.
1. 4CTLAPMP12H2 (VHH, short label tied to the entry by the clone code only; not shown: C-terminal c-myc tag and His6 tag) VHH: EVQLVESGGGLVEPGGSLRLSCAASGSISSYNVMGWYRQAPGQQRDLVAHIASNGEIMYADSAKGRFTISRDNAKKTVYLQMNSLKPEDTAVYYCKLWVLGNDYWGQRTQVTVSS: 349000
2. 4CTLAPMP02G2 (VHH, short label tied to the entry by the clone code only; not shown: C-terminal c-myc tag and His6 tag) VHH: EVQLVESRGGLVQTGGSLRLSCAASGRTFSNYTMGWFRQAPGKDREFVAAISRSGSLKSYADSVKGRFTISRDNAKKMAYLQMNSLKPEDTAVYYCAAAPVPWGTRPSFFTYDSWGQGTQVTVSS: 7.42e+06
3. 4CTLAPMP11E3 (VHH, also called 11E3 WT; not shown: C-terminal c-myc tag and His6 tag) VHH: EVQLVESGGGLVEPGGSLRLSCAASGSISSYNVMGWYRQAPGQQRDLVAHIASNGEIMYADSAKGRFTISRDNAKKTVYLQMNSLKPEDTAVYYCKLWVLGNDYWGQGTQVTVSS: 742000
4. 4CTLAPMP02F2 (VHH, short label tied to the entry by the clone code only; not shown: C-terminal c-myc tag and His6 tag) VHH: EVQLMESGGGLVQTGGSLRLSCAASGRTFSNYTMGWFRQAPGKDREFVAAISRSGSLKAYADSVKGRFTPSRDNAKKMAYLQMNSLKPEDTAVYYCAAAPVPWGTRPSLFPYDSWGQGTQVTVSS: 6.13e+06
5. 4CTLAPMP2G9 (VHH, short label tied to the entry by the clone code only; not shown: C-terminal c-myc tag and His6 tag) VHH: EVQLVKSGGQLVQAGGSLRLSCAATGRTYNSYPLGWFRQAPGKEREFVAAISASGTLRAYADSVKGRFTISRDSAKNTVYLQMNNLKPEDTAVYYCARARSVGWRASHHLSDYDNWGQGTQVTVSS: 4.35e+06

The binder identified as 4CTLAPMP11F1 (VHH, short label tied to the entry by the clone code only; also called 11F1 WT; not shown: C-terminal c-myc tag and His6 tag) VHH: EVQLVESGGGLVQAGGSLRLSCAASGGTFSFYGMGWFRQAPGKEQEFVADIRTSAGRTYYADSVKGRFTISRDNAKNTVYLQMNSLKPEDTAVYYCAAEMSGISGWDYWGQGTQVTVSS registered its kon at 1.86e+06

The binder identified as 4CTLAPMP02F4 (VHH, short label tied to the entry by the clone code only; not shown: C-terminal c-myc tag and His6 tag) VHH: EVQLVESGGGLVQTGGSLRLSCAASGRTFSNYTMGWFRQAPGKDREFVAAISRSGALKAYADSVKGRFTPSRDNAKKMAYLQMNSLKPEDTAVYYCAAAPVPWGTRPSFFPYDSWGQGTQVTVSS registered its kon at 5.69e+06
